Each record here notes measured IC50.
target_or_system: ACC2 (Homo sapiens (Human), UniProt O00763)
Sequence (O00763 whole entry, species assumed): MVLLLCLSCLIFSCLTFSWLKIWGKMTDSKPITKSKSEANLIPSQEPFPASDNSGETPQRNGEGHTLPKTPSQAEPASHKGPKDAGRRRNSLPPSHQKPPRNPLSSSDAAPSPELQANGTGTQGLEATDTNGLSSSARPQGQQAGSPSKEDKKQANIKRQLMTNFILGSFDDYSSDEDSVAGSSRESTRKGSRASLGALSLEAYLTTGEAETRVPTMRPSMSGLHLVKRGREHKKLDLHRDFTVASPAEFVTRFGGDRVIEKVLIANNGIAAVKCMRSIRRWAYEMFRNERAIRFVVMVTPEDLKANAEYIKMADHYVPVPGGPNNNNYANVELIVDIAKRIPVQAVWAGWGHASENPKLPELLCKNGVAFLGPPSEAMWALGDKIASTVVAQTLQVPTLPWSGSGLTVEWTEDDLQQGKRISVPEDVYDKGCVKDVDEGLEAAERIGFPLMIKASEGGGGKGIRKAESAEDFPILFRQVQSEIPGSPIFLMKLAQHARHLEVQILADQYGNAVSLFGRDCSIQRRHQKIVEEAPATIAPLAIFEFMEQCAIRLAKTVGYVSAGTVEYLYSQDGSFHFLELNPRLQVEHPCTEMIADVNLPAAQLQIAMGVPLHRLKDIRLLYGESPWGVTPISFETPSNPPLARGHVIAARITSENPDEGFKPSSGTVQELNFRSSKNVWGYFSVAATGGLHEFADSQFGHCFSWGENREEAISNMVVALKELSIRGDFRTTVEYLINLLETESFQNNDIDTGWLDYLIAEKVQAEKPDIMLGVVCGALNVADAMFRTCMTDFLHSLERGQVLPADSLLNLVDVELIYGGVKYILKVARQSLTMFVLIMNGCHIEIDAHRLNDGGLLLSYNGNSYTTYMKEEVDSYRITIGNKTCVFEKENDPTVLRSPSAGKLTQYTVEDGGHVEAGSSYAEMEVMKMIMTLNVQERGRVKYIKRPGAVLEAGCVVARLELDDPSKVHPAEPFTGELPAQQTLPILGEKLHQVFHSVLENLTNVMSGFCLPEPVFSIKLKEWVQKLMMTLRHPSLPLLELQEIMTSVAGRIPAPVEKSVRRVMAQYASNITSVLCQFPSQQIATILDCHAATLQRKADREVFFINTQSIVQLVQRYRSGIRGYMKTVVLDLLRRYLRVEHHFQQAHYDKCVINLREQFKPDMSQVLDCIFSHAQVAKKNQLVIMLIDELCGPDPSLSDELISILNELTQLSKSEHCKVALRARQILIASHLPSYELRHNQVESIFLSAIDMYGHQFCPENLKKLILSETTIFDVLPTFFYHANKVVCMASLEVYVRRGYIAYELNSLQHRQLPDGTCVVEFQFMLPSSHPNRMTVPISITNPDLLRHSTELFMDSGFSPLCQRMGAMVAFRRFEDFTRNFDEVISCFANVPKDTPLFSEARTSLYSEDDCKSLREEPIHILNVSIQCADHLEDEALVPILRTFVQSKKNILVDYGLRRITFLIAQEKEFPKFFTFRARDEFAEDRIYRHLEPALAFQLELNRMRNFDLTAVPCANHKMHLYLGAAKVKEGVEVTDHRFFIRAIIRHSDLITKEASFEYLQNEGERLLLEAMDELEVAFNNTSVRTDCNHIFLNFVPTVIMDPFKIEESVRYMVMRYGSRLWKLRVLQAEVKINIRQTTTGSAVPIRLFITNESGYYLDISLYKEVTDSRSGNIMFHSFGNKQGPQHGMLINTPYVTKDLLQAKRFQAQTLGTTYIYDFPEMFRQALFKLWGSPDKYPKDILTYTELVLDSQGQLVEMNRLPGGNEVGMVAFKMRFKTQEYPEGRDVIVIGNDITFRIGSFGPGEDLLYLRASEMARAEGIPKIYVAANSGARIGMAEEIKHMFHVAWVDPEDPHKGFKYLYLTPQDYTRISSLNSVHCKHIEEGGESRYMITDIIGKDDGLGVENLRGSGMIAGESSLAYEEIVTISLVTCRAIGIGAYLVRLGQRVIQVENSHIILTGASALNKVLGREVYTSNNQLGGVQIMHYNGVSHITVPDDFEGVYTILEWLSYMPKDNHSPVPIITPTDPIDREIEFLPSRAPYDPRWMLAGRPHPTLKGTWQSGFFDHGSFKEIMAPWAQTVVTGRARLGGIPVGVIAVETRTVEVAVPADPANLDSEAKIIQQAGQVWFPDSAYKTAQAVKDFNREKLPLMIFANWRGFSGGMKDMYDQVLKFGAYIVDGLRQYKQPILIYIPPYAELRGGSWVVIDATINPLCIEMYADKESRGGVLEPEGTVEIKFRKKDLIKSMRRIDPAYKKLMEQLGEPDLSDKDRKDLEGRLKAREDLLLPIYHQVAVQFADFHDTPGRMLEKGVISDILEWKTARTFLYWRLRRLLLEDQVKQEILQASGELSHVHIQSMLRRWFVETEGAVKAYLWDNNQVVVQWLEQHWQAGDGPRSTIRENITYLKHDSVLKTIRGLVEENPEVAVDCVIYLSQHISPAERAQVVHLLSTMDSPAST
experiment_summary: In vitro ACC inhibition assay (ADP-Glo), ACC2
Type: biochemical
protocol_conditions: ND630 versus RJ compounds; isoform not given; read-out: IC50 (μM) ND630/RJ-cmps(%)

// below: answered compounds
# compound, target_or_system, IC50
data = [
    ("CNC(=O)C1(n2c(=O)c3c(C)c(-c4ncco4)sc3n(CC(OC3CCOCC3)c3ccccc3OC)c2=O)CCCC1 (stereo not shown)", "ACC2 (Homo sapiens (Human), UniProt O00763)", "0.005 to 0.01 µM"),
    ("COc1ccccc1C(Cn1c(=O)n(C2(C(=O)O)CC2)c(=O)c2c(C)c(-c3ncco3)sc21)OC1CCOCC1 (stereo not shown)", "ACC2 (Homo sapiens (Human), UniProt O00763)", "0.005 to 0.01 µM"),
    ("COc1ccccc1[C@H](Cn1c(=O)n(C2CCC2C(=O)O)c(=O)c2c(C)c(-c3ncco3)sc21)OC1CCOCC1 (stereo partly shown)", "ACC2 (Homo sapiens (Human), UniProt O00763)", "> 0.01 µM"),
]

Turning now to a further record.
Which IC50 is reported with ACC2 (Homo sapiens (Human), UniProt O00763) for this entry: COc1ccccc1C(Cn1c(=O)n(C2(C(=O)O)CCC2)c(=O)c2c(C)c(-c3ncco3)sc21)OC1CCOCC1 (stereo not shown) [Example 26] ?
0.003 to 0.005 µM

* * *

target_or_system: ACC2 (Homo sapiens (Human), UniProt O00763)
experiment_summary: In vitro ACC inhibition assay (ADP-Glo), ACC2
Format: biochemical
protocol_conditions: ND630 versus RJ compounds; isoform not given; read-out: IC50 (μM) ND630/RJ-cmps(%)
Each record here notes measured IC50.

// below: answered compounds
# compound, target_or_system, IC50
data = [
    ("COc1ccccc1[C@H](Cn1c(=O)n(C2(C(=O)O)CC2)c(=O)c2c(C)c(-n3cccn3)sc21)OC1CCOCC1", "ACC2 (Homo sapiens (Human), UniProt O00763)", "0.005 to 0.01 µM"),
    ("COc1ccccc1[C@H](Cn1c(=O)n(C(C)(C)C(=O)O)c(=O)c2c(C)c(-c3nnco3)sc21)OC1CCOCC1", "ACC2 (Homo sapiens (Human), UniProt O00763)", "0.005 to 0.01 µM"),
    ("COc1ccccc1C(Cn1c(=O)n(C2(CC(=O)N3CCOCC3)CC2)c(=O)c2c(C)c(Br)sc21)OC1CCOCC1 (stereo not shown)", "ACC2 (Homo sapiens (Human), UniProt O00763)", "0.003 to 0.005 µM"),
]

Turning now to a further record.
Find the recorded IC50 belonging to COc1ccccc1[C@H](Cn1c(=O)n(C2(C(=O)O)CC2)c(=O)c2c(C)c(Cl)sc21)OC1CCOCC1 and report it.
0.005 to 0.01 µM

* * *

Each record here notes measured EC50.
Tested on: HepG2
experiment_summary: EC50 in HepG2
Format: cell-based
protocol_conditions: ND630 versus RJ compounds; read-out: EC50 (μM) ND630/RJ-cmps(%)

// below: answered compounds
# compound, EC50
data = [
    ("COc1ccccc1C(Cn1c(=O)n(C(C)(C)C(=O)O)c(=O)c2cc(C)c(-c3ncco3)cc21)OC1CCOCC1 (centres unmarked)", "0.01 to 0.1 µM"),
    ("COc1ccccc1[C@H](Cn1c(=O)n(C2(C(=O)O)CC2)c(=O)c2c(C)c(-c3ncco3)sc21)OC1CCOCC1", "> 1 µM"),
    ("COc1ccccc1C(Cn1c(=O)n(C2(C(=O)O)CCCC2)c(=O)c2c(C)c(-c3ncco3)sc21)OC1CCOCC1 (centres unmarked) [Example 25]", "0.1 to 1 µM"),
    ("COc1ccccc1C(Cn1c(=O)n(C2(CC(=O)N3CCOCC3)CC2)c(=O)c2c(C)c(Br)sc21)OC1CCOCC1 (centres unmarked)", "0.1 to 1 µM"),
    ("COc1ccccc1C(O)Cn1c(=O)n(C(C)(C)C(=O)O)c(=O)c2cc(C)c(-c3ncco3)cc21 (centres unmarked)", "0.01 to 0.1 µM"),
    ("COc1ccccc1[C@@H](Cn1c(=O)n(C2(C(=O)O)CC2)c(=O)c2c(C)c(-c3ncco3)sc21)OC1CCOCC1", "0.1 to 1 µM"),
    ("COc1ccccc1[C@H](Cn1c(=O)n(C2(CC(N)=O)CC2)c(=O)c2c(C)c(-c3ncco3)sc21)OC1CCOCC1", "> 1 µM"),
    ("COc1ccccc1C(Cn1c(=O)n(C2(C(=O)O)CCC2)c(=O)c2c(C)c(-c3ncco3)sc21)OC1CCOCC1 (centres unmarked) [Example 26]", "0.1 to 1 µM"),
    ("COc1ccccc1[C@H](Cn1c(=O)n(C2(C(=O)O)CC2)c(=O)c2c(C)c(-c3cnco3)sc21)OC1CCOCC1", "> 1 µM"),
    ("CNC(=O)C1(n2c(=O)c3c(C)c(Br)sc3n(CC(OC3CCOCC3)c3ccccc3OC)c2=O)CCC1 (centres unmarked)", "> 1 µM"),
]

Which EC50 is reported with HepG2 for this entry: COCc1sc2c(c1C)c(=O)n(C1(C(=O)O)CCCC1)c(=O)n2C[C@H](CC1CCOCC1)c1ccccc1OC ?
0.1 to 1 µM

* * *

target_or_system: ACC2 (Homo sapiens (Human))
experiment_summary: In vitro ACC inhibition assay (ADP-Glo), ACC2
Format: biochemical
protocol_conditions: ND630 versus RJ compounds; isoform not given; read-out: IC50 (μM) ND630/RJ-cmps(%)
Each record here notes measured IC50.

// below: answered compounds
# compound, result
data = [
    ("CNC(=O)C1(n2c(=O)c3cc(Br)sc3n(C[C@H](OC3CCOCC3)c3ccccc3OC)c2=O)CC1 [Example 57]", "0.005 to 0.01 µM"),
    ("COc1ccccc1[C@H](Cn1c(=O)n(C2(C(=O)O)CCCC2)c(=O)c2c(C)c(Br)sc21)OC1CCOCC1 [Example 30]", "0.003 to 0.005 µM"),
    ("COc1ccccc1C(Cn1c(=O)n(C2(C(N)=O)CCC2)c(=O)c2c(C)c(Br)sc21)OC1CCOCC1 (stereo not shown) [Example 51]", "0.003 to 0.005 µM"),
    ("COc1ccccc1[C@H](Cn1c(=O)n(C(C)(C)C(=O)OC(C)(C)C)c(=O)c2c(C)c(-c3ncco3)sc21)OC1CCOCC1 [Example 66]", "> 0.01 µM"),
    ("COc1ccccc1[C@H](Cn1c(=O)n(C2(C(=O)O)CC2)c(=O)c2c(C)c(-n3nccn3)sc21)OC1CCOCC1 [Example 49]", "0.003 to 0.005 µM"),
]

Find the recorded IC50 belonging to COc1ccccc1[C@H](Cn1c(=O)n(C2(C(=O)O)CC2)c(=O)c2c(C)c(-n3cncn3)sc21)OC1CCOCC1 [Example 56] and report it.
0.005 to 0.01 µM

Find the recorded IC50 belonging to CNC(=O)C1(n2c(=O)c3c(C)c(Br)sc3n(CC(OC3CCOCC3)c3ccccc3OC)c2=O)CCCC1 (stereo not shown) [Example 50] and report it.
0.003 to 0.005 µM

* * *

target_or_system: ACC2 (Homo sapiens (Human), UniProt O00763)
experiment_summary: In vitro ACC inhibition assay (ADP-Glo), ACC2
Type: biochemical
protocol_conditions: ND630 versus RJ compounds; isoform not given; read-out: IC50 (μM) ND630/RJ-cmps(%)
readout_type: IC50

// below: answered compounds
# compound, readout_type, result
data = [
    ("COc1ccccc1C(Cn1c(=O)n(C(C)(C)C(=O)O)c(=O)c2c(C)c(Br)sc21)OC1CCOCC1 (stereo not shown)", "IC50", "0.005 to 0.01 µM"),
    ("COc1ccccc1C(Cn1c(=O)n(C2(C(N)=O)CCCC2)c(=O)c2c(C)c(Br)sc21)OC1CCOCC1 (stereo not shown)", "IC50", "0.003 to 0.005 µM"),
    ("COc1ccccc1[C@H](Cn1c(=O)n(C2(C(=O)O)CCCC2)c(=O)c2c(C)c(-n3nccn3)sc21)OC1CCOCC1", "IC50", "0.005 to 0.01 µM"),
]

Turning now to a further record.
Find the recorded IC50 belonging to COc1ccccc1[C@H](Cn1c(=O)n(C2(C(=O)O)CC2)c(=O)c2c(C)c(Br)sc21)OC1CCOCC1 and report it.
0.003 to 0.005 µM

* * *

target_or_system: ACC2 (Homo sapiens (Human), UniProt O00763)
experiment_summary: In vitro ACC inhibition assay (ADP-Glo), ACC2
Assay type: biochemical
protocol_conditions: 5 nM ACC2, 20 μM ATP, 20 μM acetyl-CoA; read-out: IC50 (μM) ACC2
Each record here notes measured IC50.

// below: answered compounds
# compound, target_or_system, result
data = [
    ("COc1ccccc1C(Cn1c(=O)n(C2(C(=O)O)CCC2)c(=O)c2c(C)c(-c3ncco3)sc21)OC1CCOCC1 (stereo not shown) [Example 37]", "ACC2 (Homo sapiens (Human), UniProt O00763)", "< 0.01 µM"),
    ("COc1ccccc1[C@H](Cn1c(=O)n(C2(C(=O)O)CCCC2)c(=O)c2c(C)c(Br)sc21)OC1CCOCC1 [Example 30]", "ACC2 (Homo sapiens (Human), UniProt O00763)", "< 0.01 µM"),
    ("COc1ccccc1[C@H](Cn1c(=O)n(C2(CC(=O)O)CC2)c(=O)c2c(C)c(Br)sc21)OC1CCOCC1 [Example 59]", "ACC2 (Homo sapiens (Human), UniProt O00763)", "0.01 to 0.1 µM"),
    ("COc1ccccc1[C@H](Cn1c(=O)n(C2(CC(=O)O)CC2)c(=O)c2c(C)c(-c3ncco3)sc21)OC1CCOCC1 [Example 61]", "ACC2 (Homo sapiens (Human), UniProt O00763)", "< 0.01 µM"),
    ("COc1ccccc1[C@H](Cn1c(=O)n(C(C)(C)C(=O)O)c(=O)c2c(C)c(-c3ncco3)sc21)OC1CCOCC1 [Example 8]", "ACC2 (Homo sapiens (Human), UniProt O00763)", "0.01 to 0.1 µM"),
    ("COc1ccccc1[C@H](Cn1c(=O)n(C2(C(N)=O)CC2)c(=O)c2c(C)c(Br)sc21)OC1CCOCC1 [Example 58]", "ACC2 (Homo sapiens (Human), UniProt O00763)", "0.01 to 0.1 µM"),
    ("COc1ccccc1[C@H](Cn1c(=O)n(C2(CC(N)=O)CC2)c(=O)c2c(C)c(-c3ncco3)sc21)OC1CCOCC1 [Example 64]", "ACC2 (Homo sapiens (Human), UniProt O00763)", "< 0.01 µM"),
    ("COc1ccccc1[C@H](Cn1c(=O)n(C2(C(=O)O)CC2)c(=O)c2c(C)c(Cl)sc21)OC1CCOCC1 [Example 40]", "ACC2 (Homo sapiens (Human), UniProt O00763)", "0.01 to 0.1 µM"),
    ("COc1ccccc1[C@H](Cn1c(=O)n(C(C)(C)C(=O)O)c(=O)c2c(C)c(-c3nnco3)sc21)OC1CCOCC1 [Example 9]", "ACC2 (Homo sapiens (Human), UniProt O00763)", "0.1 to 1 µM"),
    ("COc1ccccc1C(Cn1c(=O)n(C2(C(=O)O)CCCC2)c(=O)c2c(C)c(-c3ncco3)sc21)OC1CCOCC1 (stereo not shown) [Example 36]", "ACC2 (Homo sapiens (Human), UniProt O00763)", "< 0.01 µM"),
]

Which IC50 is reported with ACC2 (Homo sapiens (Human), UniProt O00763) for this entry: COC(=O)C1(n2c(=O)c3c(C)c(Br)sc3n(C[C@H](OC3CCOCC3)c3ccccc3OC)c2=O)CCC1 [Example 67] ?
0.1 to 1 µM

Which IC50 is reported with ACC2 (Homo sapiens (Human), UniProt O00763) for this entry: COc1ccccc1[C@H](Cn1c(=O)n(C2(CC(N)=O)CC2)c(=O)c2c(C)c(Br)sc21)OC1CCOCC1 [Example 60] ?
0.01 to 0.1 µM
